Listed next: entries and their corresponding IC50.
- TGT: BACE1 (Homo sapiens, UniProt P56817)
- Construct: Human HEK293 cells which are stably transfected with a vector expressing a cDNA of the human APP wt gene (APP695); endogenous in cells; host or cells: HEK293 (human), stably transfected with human APP695 wt cDNA
- Sequence (P56817 46-501): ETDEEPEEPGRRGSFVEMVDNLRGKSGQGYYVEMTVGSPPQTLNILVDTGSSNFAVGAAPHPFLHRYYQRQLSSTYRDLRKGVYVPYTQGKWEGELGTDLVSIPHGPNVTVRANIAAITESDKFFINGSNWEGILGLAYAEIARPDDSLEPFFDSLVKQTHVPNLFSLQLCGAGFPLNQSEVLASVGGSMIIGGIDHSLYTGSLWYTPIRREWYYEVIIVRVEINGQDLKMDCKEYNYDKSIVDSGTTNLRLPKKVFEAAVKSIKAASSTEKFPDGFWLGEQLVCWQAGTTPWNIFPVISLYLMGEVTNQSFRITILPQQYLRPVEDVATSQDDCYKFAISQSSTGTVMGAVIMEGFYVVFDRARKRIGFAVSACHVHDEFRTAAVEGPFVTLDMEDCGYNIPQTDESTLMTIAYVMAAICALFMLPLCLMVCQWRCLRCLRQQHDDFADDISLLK
- TEST METHOD NOTES: Cellular Aβ-lowering assay (Aβ40 ELISA of culture supernatant)
- Assay type: cell-based
- CONDITION INFO: dual-site BACE1 inhibitors; HEK293 cells stably transfected with human APP wt (APP695); 18-20 hrs incubation; Aβ40 in supernatant; read-out: IC 50
- Description: The compounds were investigated in accordance with the test given hereinafter. […] After stopping the reaction with one volume 1 N H2SO4 the reaction was measured in an ELISA reader at 450 nm wavelength. The concentrations of Aβ in the culture supernatants were calculated from a standard curve obtained with known amounts of pure Aβ peptide.
Square brackets hold non-standard residues; d marks the D form. Peptide text beside a SMILES is read from it. Sta = CC(C)C[C@H](N)[C@@H](O)CC(=O)O; PEG4 = NCCOCCOCCOCCOCCC(=O)O
PROPERTY MEASURED: IC50

{"columns": ["MOLECULE", "READING"],
 "data": [
  ["CC[C@H](C)[C@H](NC(=O)[C@H](Cc1ccccc1)NC(=O)[C@H](CCCNC(=N)N)NC(=O)[C@H](C)NC(=O)CN)C(=O)N1CCC[C@H]1C(=O)N[C@@H](C)C(=O)NCC(=O)N[C@H](CCCCN)C(=O)NCC(=O)N[C@@H](CCC(=O)O)C(=O)N[C@H](C(=O)N[C@@H](CC(N)=O)C(=O)N[C@@H](CC(C)C)[C@@H](O)CC(=O)N[C@H](C(=O)N[C@@H](C)C(=O)N[C@@H](CCC(=O)O)C(=O)N1CCC[C@@H]1C(N)=O)C(C)C)C(C)C [Example 16] (H-GARFIPAG[dK]GEVN[Sta]VAE[dP]-NH2; N-terminus assumed)", "0.42 µM"],
  ["CC(C)C[C@H](NC(=O)[C@@H](CCCCN)NC(=O)[C@H](Cc1ccccc1)NC(=O)[C@H](Cc1ccc(O)cc1)NC(=O)[C@@H]1CCCN1C(=O)[C@@H](N)Cc1ccc(O)cc1)C(=O)NCCOCCOCCOCCOCCC(=O)N[C@@H](CCC(=O)O)C(=O)N[C@H](C(=O)N[C@@H](CC(N)=O)C(=O)N[C@@H](CC(C)C)[C@@H](O)CC(=O)N[C@H](C(=O)N[C@@H](C)C(=O)N[C@@H](CCC(=O)O)C(=O)N1CCC[C@@H]1C(N)=O)C(C)C)C(C)C [Example 23] (H-YPYF[dK]L[PEG4]EVN[Sta]VAE[dP]-NH2)", "> 40 µM"],
  ["CC[C@H](C)[C@H](NC(=O)[C@H](Cc1ccccc1)NC(=O)[C@H](Cc1ccc(O)cc1)NC(=O)[C@@H]1CCCN1C(=O)[C@@H](N)Cc1ccc(O)cc1)C(=O)N[C@H](CCCCN)C(=O)N[C@@H](CC(C)C)C(=O)NCC(=O)N[C@H](CCCCN)C(=O)NCC(=O)N[C@@H](CCC(=O)O)C(=O)N[C@H](C(=O)N[C@@H](CC(N)=O)C(=O)N[C@@H](CC(C)C)[C@@H](O)CC(=O)N[C@H](C(=O)N[C@@H](C)C(=O)N[C@@H](CCC(=O)O)C(=O)N1CCC[C@@H]1C(N)=O)C(C)C)C(C)C [Example 12] (H-YPYFI[dK]LG[dK]GEVN[Sta]VAE[dP]-NH2)", "> 40 µM"]
]}
